Exercise: state measured kinase still bound, per cent of control for each of the compounds provided.
# assayed-system: ACVR2A (human)
# measurement-protocol: KINOMEscan competition binding
# cond: compound 10.0 µM
The number alone won't do; follow it with the unit.

{"compound": "CC1=C(C(=O)Nc2cc3cn[nH]c3cc2F)C(c2ccc(C(F)(F)F)cc2)CC(=O)N1 (centres undefined)", "kinase still bound, per cent of control": "88%"}
{"compound": "N#Cc1cc(-c2ccnc(Nc3ccc(-n4cnc(-c5cccnc5)n4)cc3)n2)cc(N2CCOCC2)c1", "kinase still bound, per cent of control": "16%"}
{"compound": "CCN1CCN(Cc2ccc(NC(=O)c3ccc(C)c(/C=C/c4cnc5[nH]ccc5c4OC)c3)cc2C(F)(F)F)CC1", "kinase still bound, per cent of control": "100%"}
{"compound": "COc1ccc(N(C(=O)Oc2cc(C(=O)Nc3cccc(C(F)(F)F)c3)ccc2C)c2ccnc(Nc3ccc(N4CCN(C)CC4)cc3)n2)c(OC)c1", "kinase still bound, per cent of control": "100%"}
{"compound": "CCc1nc(-c2cccc(C)c2)c(-c2ccnc(NC(=O)c3ccccc3)c2)s1", "kinase still bound, per cent of control": "70%"}

Give me kinase still bound, per cent of control for each of these compounds, listed below.
1. C=CC(=O)Nc1ccc(C(=O)c2sc(Nc3ccc(N4CCN(C)CC4)cc3OC)nc2N)cc1
2. CCCS(=O)(=O)Nc1ccc(F)c(C(=O)c2c[nH]c3ncc(Cl)cc23)c1F
3. COc1cc2ncnc(Nc3cccc(Cl)c3)c2cc1OC
4. COc1cc(N2CCC(C(N)=O)CC2)ccc1Nc1nc(N)c(Cl)c(Nc2ccccc2S(=O)(=O)C(C)C)n1

1: 100%; 2: 100%; 3: 92%; 4: 100%
